Reference for the values: patent US20250320213A1

Entries and their IC50
System: CCL17 secretion in peripheral human whole blood
Assay: Human Whole Blood (HWB) CCL17 TR-FRET Assay (IL-13 stimulated CCL17 secretion)
Assay type: cell-based
Settings: human whole blood, IL-13 stimulated, 48 hours
Value and unit, in that order.

Example cases with answers are listed next.
| compound | recorded endpoint | assay result |
| --- | --- | --- |
| CCn1nc(C(=O)NCc2ccc(C(=O)NC)cc2)c2c1C(C(F)(F)F)CN(c1ccc(C(=O)N(C)C)cn1)C2 (single isomer, unassigned) [Example 468] | IC50 | 12 nM |
| CCn1nc(C(=O)NCc2ccc(NC(=O)N(C)C)cc2)c2c1C(C(F)(F)F)CN(c1ccc(C(=O)N(C)C)cn1)C2 (single isomer, unassigned) [Example 303] | IC50 | 334 nM |
| CN(C)C(=O)Nc1ccc(CNC(=O)c2nn(C)c3c2[C@H]2CCC[C@@H](C3)N2c2ccc(C(=O)N(C)C)cn2)cc1 (single isomer, unassigned) [Example 275] | IC50 | 30 nM |
| CC(C)n1nc(C(=O)NCc2ccc(NC(=O)N(C)C)cc2)c2c1CC(C(F)(F)F)N(c1ccc(C(=O)N(C)C)cn1)C2 (single isomer, unassigned) [Example 276] | IC50 | 28 nM |

# return recorded IC50 for input CC(C)n1nc(C(=O)NCc2ccc(NC(=O)N(C)C)cc2)c2c1C(C(F)F)CN(c1ccc(C(=O)N(C)C)cn1)C2 (single isomer, unassigned) [Example 494]
4 nM

# return recorded IC50 for input CCc1nc(C(=O)NCc2ccc(NC(=O)N(C)C)cc2)c2n1C(C)CN(c1ccc(C(=O)N(C)C)cc1)C2 (single isomer, unassigned) [Example 428]
140 nM

# return recorded IC50 for input CC(CC#N)n1nc(C(=O)NCc2ccc(NC(=O)N(C)C)cc2)c2c1CCN(c1ccc(C(=O)N(C)C)cn1)C2 (single isomer, unassigned) [Example 347]
127 nM

# return recorded IC50 for input CCC1CN(c2ccc(C(=O)N(C)C)cn2)Cc2c(C(=O)NCc3ccc(NC(=O)N(C)C)cc3)nn(C(C)C)c21 (single isomer, unassigned) [Example 311]
11 nM

# return recorded IC50 for input CC(CC#N)n1nc(C(=O)NCc2ccc(NC(=O)N(C)C)cc2)c2c1CCN(c1ccc(C(=O)N(C)C)cn1)C2 (single isomer, unassigned) [Example 348]
36 nM

# return recorded IC50 for input CCOC(=O)Nc1ccc(CNC(=O)c2nn(C(C)C)c3c2CN(c2ccc(C(=O)N(C)C)cn2)CC3)cc1 [Example 236]
254 nM

# return recorded IC50 for input CCC1Cc2c(c(C(=O)NCc3ccc(NC(=O)N(C)C)cc3)nn2C(C)C)CN1c1ccc(C(=O)N(C)C)cn1 (single isomer, unassigned) [Example 267]
984 nM
